Recorded koff for the following binders
assayed_target: T1, human LAG3 (construct not stated) (human, UniProt P18627 23-450, limits assumed)
T1 construct: also called human LAG3 protein; antigen
T1 sequence (looked up): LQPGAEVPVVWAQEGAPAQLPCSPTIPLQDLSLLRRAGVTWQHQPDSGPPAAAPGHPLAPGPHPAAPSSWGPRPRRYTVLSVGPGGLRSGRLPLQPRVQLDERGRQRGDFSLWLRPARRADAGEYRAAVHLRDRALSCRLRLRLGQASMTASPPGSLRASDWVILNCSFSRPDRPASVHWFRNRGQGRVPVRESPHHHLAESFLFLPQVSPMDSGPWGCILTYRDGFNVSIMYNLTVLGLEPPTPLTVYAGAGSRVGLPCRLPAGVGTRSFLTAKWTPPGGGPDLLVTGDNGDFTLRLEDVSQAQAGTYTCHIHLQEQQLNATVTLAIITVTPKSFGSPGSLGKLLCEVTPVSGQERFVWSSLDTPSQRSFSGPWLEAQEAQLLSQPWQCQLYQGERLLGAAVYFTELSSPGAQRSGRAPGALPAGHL
procedure_text: BLI Octet Red 96, affinity ranking
Record the value in s⁻¹, omitting the unit from your answer.

>>> recorded_result("147H-14 (antibody, V domains shown, Common light chain; human gamma 1 / kappa constant domains) VH: EVQLVQSGAEVKKPGASVKVSCKASGYTFTNYWLGWIKQAPGQGLEWIGDIYPGGDYINYNEKFKGKATLTADTSISTAYMELSRLRSDDTAVYFCARPNLPGDYWGQGTTVTVSS VL: DIVMTQSPLSLPVTPGEPASISCRSSKSLLHSNGITYLYWYLQKPGQSPQLLIYQVSNLASGVPDRFSGSGSGTDFTLKISRVEAEDVGVYYCAQNLELPWTFGGGTKVEIK")
0.0025
>>> recorded_result("147H-11 (antibody, V domains shown, Common light chain; human gamma 1 / kappa constant domains) VH: EVQLVQSGAEVKKPGASVKVSCKASGYTFTNYWLGWVRQAPGQGLEWMGDIYPGGDYINYNEKFKGKATLTADTSISTAYMELSRLRSDDTAVYYCARPNLPGDYWGQGTTVTVSS VL: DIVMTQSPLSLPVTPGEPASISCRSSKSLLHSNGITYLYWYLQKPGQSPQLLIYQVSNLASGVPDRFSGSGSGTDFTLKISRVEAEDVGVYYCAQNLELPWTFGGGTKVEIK")
0.00451
>>> recorded_result("147H-5 (antibody, V domains shown, Common light chain; human gamma 1 / kappa constant domains) VH: QVQLVQSGAEVKKPGASVKVSCKASGYTFTNYWLGWVRQAPGQGLEWIGDIYPGGDYINYNEKFKGKATLTADTSISTAYMELSRLRSDDTAVYYCARPNLPGDYWGQGTTVTVSS VL: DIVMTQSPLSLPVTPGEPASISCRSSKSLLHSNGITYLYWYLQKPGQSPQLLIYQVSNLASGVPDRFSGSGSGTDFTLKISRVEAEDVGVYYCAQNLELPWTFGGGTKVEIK")
0.003

Q: Specify reported koff for the binder shown: 147H-10 (antibody, V domains shown, Common light chain; human gamma 1 / kappa constant domains) VH: EVQLVQSGAEVKKPGASVKVSCKASGYTFTNYWLGWVRQAPGQGLEWMGDIYPGGDYINYNEKFKGRVTLTADTSISTAYMELSRLRSDDTAVYYCARPNLPGDYWGQGTTVTVSS VL: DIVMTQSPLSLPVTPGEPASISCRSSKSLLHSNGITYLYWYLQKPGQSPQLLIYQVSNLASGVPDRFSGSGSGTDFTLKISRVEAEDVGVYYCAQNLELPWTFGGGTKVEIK
A: 0.00404
